system: A2780; experiment: Cytotoxicity, propidium iodide assay, A2780; format: cell-based; settings: Homo sapiens; Ovarian, A2780, 48 hours treatment; read-out: IC50, C3a (A2780)
READOUT: IC50

COc1ccc(NC(=O)n2c(=O)n(-c3ccc(C(C)(C)C#N)cc3)c3c4cc(Br)ccc4ncc32)cc1
> 3000 nM

compound `CC(C)(C#N)c1ccc(-n2c(=O)n(S(C)(=O)=O)c3cnc4ccc(Br)cc4c32)cc1` , IC50 observed: ≤ 1000 nM

compound `C/C=C/C(=O)n1c(=O)n(-c2ccc(C(C)(C)C#N)cc2)c2c3cc(Cl)ccc3ncc21` , IC50 observed: > 3000 nM

compound `Cc1ccc2ncc3c(c2c1)n(-c1ccc(C(C)(C)C#N)cc1)c(=O)n3S(=O)(=O)c1cccc2cccnc12` , IC50 observed: > 3000 nM

compound `CC(C)(C#N)c1ccc(-n2c(=O)n(S(=O)(=O)c3cccs3)c3cnc4ccc(Br)cc4c32)cc1` , IC50 observed: ≤ 1000 nM

compound `C/C=C/C(=O)n1c(=O)n(-c2ccc(C(C)(C)C#N)cc2)c2c3cc(Br)ccc3ncc21` , IC50 observed: > 3000 nM

compound `CC(=O)c1ccc(S(=O)(=O)n2c(=O)n(-c3ccc(C(C)(C)C#N)cc3)c3c4cc(C)ccc4ncc32)cc1` , IC50 observed: > 3000 nM

* * *

test system: H460; experiment: Cytotoxicity, propidium iodide assay, H460; format: cell-based; conditions: Homo sapiens, NCI-H460; Lung, H460, 48 hours treatment; read-out: IC50, C1b (H460)
READOUT: IC50

See these solved cases before continuing.
Cc1ccc2ncc3c(c2c1)n(-c1ccc(C(C)(C)C#N)cc1)c(=O)n3S(=O)(=O)c1cccc2cccnc12
> 3000 nM
Cc1cc(C)cc(S(=O)(=O)n2c(=O)n(-c3ccc(C(C)(C)C#N)cc3)c3c4cc(Br)ccc4ncc32)c1
> 3000 nM

# evaluate next
compound `Cc1ccc([N+](=O)[O-])cc1S(=O)(=O)n1c(=O)n(-c2ccc(C(C)(C)C#N)cc2)c2c3cc(Br)ccc3ncc21` , IC50 observed: 1000 to 3000 nM

* * *

test system: HCT116; experiment: Cytotoxicity, propidium iodide assay, HCT116; type: cell-based; settings: Homo sapiens, HCT-116; Colon, HCT116, 48 hours treatment; read-out: IC50, C4a (HCT116)
pIC50: −log10 of the molar value.
pIC50 reference

See these solved cases before continuing.
CC(C)(C#N)c1ccc(-n2c(=O)n(S(=O)(=O)c3cccc(F)c3)c3cnc4ccc(Br)cc4c32)cc1
5.52 to 6.00
CC(=O)c1ccc(S(=O)(=O)n2c(=O)n(-c3ccc(C(C)(C)C#N)cc3)c3c4cc(Br)ccc4ncc32)cc1
< 5.52
CC(C)(C#N)c1ccc(-n2c(=O)n(C(=O)c3ccccc3)c3cnc4ccc(Cl)cc4c32)cc1
< 5.52
Cc1ccc([N+](=O)[O-])cc1S(=O)(=O)n1c(=O)n(-c2ccc(C(C)(C)C#N)cc2)c2c3cc(Br)ccc3ncc21
< 5.52
Cc1ccc2ncc3c(c2c1)n(-c1ccc(C(C)(C)C#N)cc1)c(=O)n3S(=O)(=O)c1cccc(F)c1
< 5.52

compound `CC(C)(C#N)c1ccc(-n2c(=O)n(C(=O)c3ccccc3)c3cnc4ccc(Br)cc4c32)cc1` , pIC50 observed: ≥ 6.00

compound `Cc1ccc2ncc3c(c2c1)n(-c1ccc(C(C)(C)C#N)cc1)c(=O)n3S(=O)(=O)c1cccc2cccnc12` , pIC50 observed: < 5.52

compound `Cc1cccc(S(=O)(=O)n2c(=O)n(-c3ccc(C(C)(C)C#N)cc3)c3c4cc(Br)ccc4ncc32)c1` , pIC50 observed: 5.52 to 6.00

compound `CC(C)(C#N)c1ccc(-n2c(=O)n(S(=O)(=O)c3cccc(C(F)(F)F)c3)c3cnc4ccc(Br)cc4c32)cc1` , pIC50 observed: < 5.52
